List of Ki values.
# TEST_SYSTEM: mTOR enzyme (mTOR(1360-2549)+GBL) (Homo sapiens)
# PROTOCOL_TEXT: In vitro mTOR kinase assay (TR-FRET)
# TEST_SETTINGS: Ki apparent, Morrison ATP-competitive tight binding equation; 8 uM ATP, 0.25 nM mTOR+GBL; read-out: activity level (Ki) in the mTOR kinase assay
# unit: nM | format: bare number

get_value(item= `CCNC(=O)Nc1ccc(-c2nc(N3CCOC[C@@H]3C)c3nc(C4(F)CCOCC4)n(CC)c3n2)cc1` , readout=Ki) returns 5

***
get_value(item= `CCNC(=O)Nc1ccc(-c2nc(N3CCOC[C@@H]3C)c3nc(C4CC4)n(C)c3n2)cc1` , readout=Ki) returns 8

get_value(item= `CCNC(=O)Nc1ccc(-c2nc(N3CCOC[C@@H]3C)c3nc(C4(O)CCOCC4)n(CC)c3n2)cc1` , readout=Ki) returns 4

get_value(item= `CCNC(=O)Nc1ccc(-c2nc(N3CCOC[C@@H]3C)c3nc(C4(O)COC4)n(C)c3n2)cc1` , readout=Ki) returns 7

---

# TEST_SYSTEM: mTOR enzyme (mTOR(1360-2549)+GBL) (Homo sapiens)
# PROTOCOL_TEXT: In vitro mTOR kinase assay (TR-FRET)
# TEST_SETTINGS: Ki apparent, Morrison ATP-competitive tight binding equation; 8 uM ATP, 0.25 nM mTOR+GBL; read-out: activity level (Ki) in the mTOR kinase assay
List of pKi values.
Expect pKi as a plain number equal to -log10 of the molar concentration.

Reported pKi (mTOR enzyme (mTOR(1360-2549)+GBL) (Homo sapiens)) for entry CCNC(=O)Nc1ccc(-c2nc(N3CCOC[C@@H]3C)c3nc(C4(O)CCOCC4)n(C)c3n2)cc1 [Compound 103] is 8.30

Turning now to a further record.
Reported pKi (mTOR enzyme (mTOR(1360-2549)+GBL) (Homo sapiens)) for entry CCNC(=O)Nc1ccc(-c2nc(N3CCOC[C@@H]3C)c3nc(C4(O)CNC4)n(C)c3n2)cc1 [Compound 105] is 7.13

---

List of Ki values.
# TEST_SYSTEM: mTOR enzyme (mTOR(1360-2549)+GBL) (Homo sapiens, UniProt P42345)
# Sequence (P42345 1360-2549): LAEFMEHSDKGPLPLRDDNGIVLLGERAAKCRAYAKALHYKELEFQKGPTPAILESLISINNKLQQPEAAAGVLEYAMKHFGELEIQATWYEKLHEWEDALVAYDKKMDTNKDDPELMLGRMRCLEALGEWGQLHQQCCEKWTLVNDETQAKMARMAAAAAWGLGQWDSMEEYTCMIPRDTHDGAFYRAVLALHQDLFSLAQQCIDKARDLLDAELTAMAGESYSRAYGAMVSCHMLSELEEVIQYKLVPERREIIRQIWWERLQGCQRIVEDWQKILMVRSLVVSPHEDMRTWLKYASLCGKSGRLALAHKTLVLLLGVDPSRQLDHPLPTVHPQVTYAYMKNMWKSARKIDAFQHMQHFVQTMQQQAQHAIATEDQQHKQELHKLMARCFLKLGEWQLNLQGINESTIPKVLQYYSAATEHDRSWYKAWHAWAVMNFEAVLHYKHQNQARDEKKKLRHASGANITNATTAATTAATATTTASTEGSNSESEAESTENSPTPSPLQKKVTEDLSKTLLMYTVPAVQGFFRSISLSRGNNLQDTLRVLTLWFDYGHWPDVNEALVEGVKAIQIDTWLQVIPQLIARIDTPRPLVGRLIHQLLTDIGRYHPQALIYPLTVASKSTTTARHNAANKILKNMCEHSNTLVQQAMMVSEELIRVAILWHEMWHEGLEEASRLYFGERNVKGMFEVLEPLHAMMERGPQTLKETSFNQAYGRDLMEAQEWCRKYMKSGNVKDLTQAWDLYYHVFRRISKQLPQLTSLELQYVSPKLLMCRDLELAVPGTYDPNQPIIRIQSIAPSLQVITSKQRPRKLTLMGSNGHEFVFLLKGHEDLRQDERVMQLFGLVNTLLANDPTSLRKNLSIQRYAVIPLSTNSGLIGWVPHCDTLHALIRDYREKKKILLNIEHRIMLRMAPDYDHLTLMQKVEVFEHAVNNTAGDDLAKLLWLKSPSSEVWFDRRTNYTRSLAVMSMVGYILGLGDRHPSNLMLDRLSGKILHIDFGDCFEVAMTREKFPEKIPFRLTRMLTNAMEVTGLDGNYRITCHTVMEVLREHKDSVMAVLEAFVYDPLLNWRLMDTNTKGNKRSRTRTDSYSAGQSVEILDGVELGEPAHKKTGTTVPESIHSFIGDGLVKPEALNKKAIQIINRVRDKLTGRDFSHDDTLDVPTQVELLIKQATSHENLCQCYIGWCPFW
# Sequence (Q9BVC4 whole entry partner): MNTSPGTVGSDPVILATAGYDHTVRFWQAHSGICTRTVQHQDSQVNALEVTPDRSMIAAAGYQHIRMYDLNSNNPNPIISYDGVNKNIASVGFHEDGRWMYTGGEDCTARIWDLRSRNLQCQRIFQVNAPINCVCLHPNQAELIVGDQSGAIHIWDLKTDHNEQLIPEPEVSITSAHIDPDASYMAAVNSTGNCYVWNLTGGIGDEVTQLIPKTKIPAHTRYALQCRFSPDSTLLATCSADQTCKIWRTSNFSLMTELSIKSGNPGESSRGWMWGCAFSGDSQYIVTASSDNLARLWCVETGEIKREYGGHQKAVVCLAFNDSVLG
# PROTOCOL_TEXT: In vitro mTOR kinase assay (TR-FRET)
# TEST_SETTINGS: Ki apparent, Morrison ATP-competitive tight binding equation; 8 uM ATP, 0.25 nM mTOR+GBL; read-out: activity level (Ki) in the mTOR kinase assay
# Protocol: The kinase activity of mTOR enzyme is assessed by incubating purified recombinant enzyme (mTOR(1360-2549)+GBL, prepared in-house) in a reaction mixture containing ATP, MnCl2, and a fluorescently labeled mTOR substrate, e.g., GFP-4E-BP1 (Invitrogen, product #PR8808A). […] Product formation is detected by way of time-resolved fluorescence resonance energy transfer (TR-FRET), which occurs when the phosphorylated substrate and labeled antibody are in close proximity due to phospho-specific binding. […]
# unit: nM | format: bare number

get_value(item= CCn1c(C2CC2)nc2c(N3CCOC[C@@H]3C)nc(-c3ccc(NC(=O)NC4COC4)cc3)nc21 [Compound 113] , readout=Ki) returns 8

get_value(item= CCNC(=O)Nc1ccc(-c2nc(N3CCOC[C@@H]3C)c3nc(C4CC4)n(CC)c3n2)cc1 [Compound 106] , readout=Ki) returns 8

Turning now to a further record.
get_value(item= CCNC(=O)Nc1ccc(-c2nc(N3CCOC[C@@H]3C)c3nc(C4(F)COC4)n(CC)c3n2)cc1 [Compound 109] , readout=Ki) returns 3
